All values here come from patent US20040133357A1.

Recorded pKd by entry
experimental_target: T1, purified recombinant human VEGF165 (human, UniProt P15692 27-191, glycosylated)
T1 construct: mature; Bought from Calbiochem; also called VEGF protein (Calbiochem); homodimeric VEGF protein
T1 sequence (P15692 other isoform, or with tags, fused parts or gaps limits assumed): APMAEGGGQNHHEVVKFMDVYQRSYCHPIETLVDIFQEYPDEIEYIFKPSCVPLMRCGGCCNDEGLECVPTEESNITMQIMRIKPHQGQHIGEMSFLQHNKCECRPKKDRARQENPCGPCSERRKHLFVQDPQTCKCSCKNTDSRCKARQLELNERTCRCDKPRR
experiment_summary: SPR (BIAcore), purified scFv over VEGF immobilized on CM5 chip, 35 C
pKd is defined as minus the log10 of a concentration measured in mol/L.

hAB36 (scFv, Single chain format; not shown: HA-His6 tag at C-terminus) scFv: EVQLVQSGGGVVQPGGSLRLSCAASGYDLSHYGLNWIRQAPGKGPEWVGWINTYTGEPTYAPDFTRRVTFSLDTSKSTAYLQLNSLRAEDTAVYYCAKYPYYYGRSHWYFDVWGQGTLVTVSSGGGGSGGGGSGGGGSDIVMTQSPSTLSASPGERATITCNASQSIGSYLAWYQQKPGQAPKVLIYGASNLASGVPSRFSGSRSGTDFTLTISSLQPEDFAVYYCQQYNSTPWTFGGGTKLEIK = 9.15

Then this binder:
I would be grateful if you could share the reported pKd for hAB39 (scFv, Single chain format; not shown: HA-His6 tag at C-terminus) scFv: EVQLVQSGGGVVQPGGSLRLSCAASGYDFTHFGLNWVRQAPGKGLEWVGWVNTYTGETTYAHEFKRRVTFSLDTSKSTAYLQLNSLRAEDTAVYYCAKYPYYYGRSHWYFDVWGQGTLVTVSSGGGGSGGGGSGGGGSDIVMTQSPSTLSASPGERATITCNASQSIGSYLAWYQQKPGQAPKVLIYGASNLASGVPSRFSGSRSGTDFTLTISSLQPEDFAVYYCQQYNSTPWTFGGGTKLEIK .
8.74
